system: HEK293; test: IC50 for inhibition of ZIKV NS1 production
Just a reminder that ties go to 0 (no): only IC50 strictly below 2 µM counts as 1 (yes).

{"compound": "NCC(=O)Nc1ccc(-n2nc(C(F)(F)F)cc2-c2ccc3c(ccc4ccccc43)c2)cc1", "assigned-category": "1 (yes)"}
{"compound": "O=C1C(SCCO)=C(SCCO)C(=O)c2ccccc21", "assigned-category": "0 (no)"}
{"compound": "CSc1cccc(Nc2ncc3cc(-c4c(Cl)cccc4Cl)c(=O)n(C)c3n2)c1", "assigned-category": "0 (no)"}
{"compound": "CCCOc1ccc2[nH]c(NC(=O)OC)nc2c1", "assigned-category": "0 (no)"}
{"compound": "C=C1C(=O)O[C@H]2[C@H]1CC/C(C)=C/CC[C@@]1(C)O[C@@H]21", "assigned-category": "0 (no)"}
{"compound": "COc1cccc2c(NCc3ccccc3)nc(-n3c(N)nc4ccccc43)nc12", "assigned-category": "0 (no)"}
{"compound": "COC(=O)Nc1nc2cc(C(=O)c3ccccc3)ccc2[nH]1", "assigned-category": "1 (yes)"}
{"compound": "CC[C@]1(O)C[C@@H]2CN(CCc3c([nH]c4ccccc34)[C@@](C(=O)OC)(c3cc4c(cc3OC)N(C)[C@H]3[C@@](O)(C(N)=O)[C@H](O)[C@]5(CC)C=CCN6CC[C@]43[C@@H]65)C2)C1", "assigned-category": "1 (yes)"}
{"compound": "Cc1c(O)cccc1C(=O)N[C@@H](CSc1ccccc1)[C@H](O)CN1C[C@H]2CCCC[C@H]2C[C@H]1C(=O)NC(C)(C)C", "assigned-category": "0 (no)"}
{"compound": "Cn1c(=O)c(-c2c(Cl)cccc2Cl)cc2cnc(Nc3ccc(N4CCOCC4)cc3)nc21", "assigned-category": "0 (no)"}
{"compound": "NC1(c2ccc(-c3nc4ccn5c(=O)[nH]nc5c4cc3-c3ccccc3)cc2)CCC1", "assigned-category": "0 (no)"}
{"compound": "C[C@@]12C(=O)OC(=O)[C@]1(C)[C@H]1CC[C@@H]2O1", "assigned-category": "0 (no)"}
{"compound": "CS(=O)(=O)N1CCN(Cc2cc3nc(-c4cccc5[nH]ncc45)nc(N4CCOCC4)c3s2)CC1", "assigned-category": "0 (no)"}
{"compound": "NS(=O)(=O)c1cccc2c1C(=O)c1cccc(O)c1C2=O", "assigned-category": "0 (no)"}
{"compound": "C/C=C(/C)C(=O)O[C@H]1C(C)=C2[C@H]([C@@H]1OC(=O)CCCCCCC)[C@@](C)(OC(C)=O)C[C@H](OC(=O)CCC)[C@@]1(O)[C@H]2OC(=O)[C@@]1(C)O", "assigned-category": "1 (yes)"}
{"compound": "Cc1[nH]nc2ccc(-c3cncc(OC[C@@H](N)Cc4ccccc4)c3)cc12", "assigned-category": "0 (no)"}
{"compound": "Cn1c(CCCC(=O)O)nc2cc(N(CCCl)CCCl)ccc21", "assigned-category": "0 (no)"}
{"compound": "CCC1=C[C@@H]2CN(C1)Cc1c([nH]c3ccccc13)[C@@](C(=O)OC)(c1cc3c(cc1OC)N(C)[C@H]1[C@@](O)(C(=O)OC)[C@H](OC(C)=O)[C@]4(CC)C=CCN5CC[C@]31[C@@H]54)C2", "assigned-category": "1 (yes)"}
{"compound": "O=C1c2c(O)ccc(O)c2C(=O)c2c(NCCNCCO)ccc(NCCNCCO)c21", "assigned-category": "1 (yes)"}
{"compound": "CCOC(=O)N1CCN(/[N+]([O-])=N/Oc2ccc([N+](=O)[O-])cc2C#N)CC1", "assigned-category": "0 (no)"}
{"compound": "C=CCn1c(=O)c2cnc(Nc3ccc(N4CCN(C)CC4)cc3)nc2n1-c1cccc(C(C)(C)O)n1", "assigned-category": "1 (yes)"}
{"compound": "CC[C@H]1CN2CCc3cc(OC)c(OC)cc3[C@@H]2C[C@@H]1C[C@H]1NCCc2cc(OC)c(OC)cc21", "assigned-category": "1 (yes)"}
{"compound": "O=C1C(Cl)=C(NCCN2CCOCC2)C(=O)c2ncccc21", "assigned-category": "0 (no)"}
{"compound": "CC[C@@H](C(=O)[C@@H](C)[C@@H](O)[C@H](C)[C@@H]1O[C@@H]([C@@H](CC)C(=O)O)CC[C@@H]1C)[C@H]1O[C@]2(C=C[C@@H](O)[C@]3(CC[C@@](C)([C@H]4CC[C@](O)(CC)[C@H](C)O4)O3)O2)[C@H](C)C[C@@H]1C", "assigned-category": "0 (no)"}
{"compound": "CC[C@@]1(O)C(=O)OCc2c1cc1n(c2=O)Cc2cc3c(CN(C)C)c(O)ccc3nc2-1", "assigned-category": "1 (yes)"}
{"compound": "COc1cccc2c1C(=O)c1c(O)c3c(c(O)c1C2=O)C[C@@](O)(C(=O)CO)C[C@@H]3O[C@H]1C[C@H](N)[C@@H](O)[C@H](C)O1", "assigned-category": "1 (yes)"}
{"compound": "CO[C@@]12[C@H](COC(N)=O)C3=C(C(=O)C(C)=C(N)C3=O)N1C[C@@H]1N[C@@H]12", "assigned-category": "0 (no)"}
{"compound": "Clc1ccc(CCC(Cn2ccnc2)Sc2c(Cl)cccc2Cl)cc1 (stereo not drawn)", "assigned-category": "0 (no)"}
{"compound": "C=C1C(=O)[C@]23[C@H](O)[C@H]1CC[C@H]2[C@@]12CO[C@]3(O)[C@@H](O)[C@@H]1C(C)(C)CC[C@@H]2O", "assigned-category": "0 (no)"}
{"compound": "O=C(Nc1ccncc1)C(=O)c1cn(Cc2ccc(Cl)cc2)c2ccccc12", "assigned-category": "1 (yes)"}
{"compound": "COc1cccc2c1C(=O)c1c(O)c3c(c(O)c1C2=O)C[C@@](O)(C(=O)CO)C[C@@H]3O[C@H]1C[C@H](N)[C@H](O[C@@H]2CCCCO2)[C@H](C)O1", "assigned-category": "0 (no)"}
{"compound": "COc1cccc(-c2ccc(NC(=O)C3=C(C(=O)O)CCC3)c(F)c2)c1", "assigned-category": "0 (no)"}
